Task for the reader: assign each of the following molecules its reported CC50.
Test: Cytotoxicity in growing (rapidly dividing) HFF
Assay type: cell-based, human
Conditions: human, growing hff cells; rapidly dividing cells; read-out: CC50

>>> observed_result("Cc1cn([C@@H]2C[C@H](CO)[C@@H](O)C2)c(=O)[nH]c1=O (relative stereo) [Compound 26, (±)-(carba-T), reference compound]")
"0.65 mg/L"

Parameters: items (list). Returns: CC50 for each item.
1. Nc1nc(O)c2ncn(COC(CO)CO)c2n1
2. Cc1cn([C@H]2C[C@H](O)[C@]3(CO)C[C@H]23)c(=O)[nH]c1=O
3. Cc1cn([C@@]23C[C@H](O)[C@@H](CO)[C@@H]2C3)c(=O)[nH]c1=O [Compound 25, (S)-methanocarba-T, reference compound]

Result:
1. 40 mg/L
2. 32.9 mg/L
3. > 100 mg/L
